Measured TGI of individual entries
Tested on: K-562 leukemia
method-description: NCI tumour cell line growth inhibition, 48 h
attribute-measured: TGI

compound=CS(=O)(=O)NNS(=O)(=O)c1ccccc1 test_system="K-562 leukemia" endpoint_value="> 100 µM"
compound="COc1cccc(/C=N/NC(=S)NC2CC3CCC2C3)c1O (stereo not given)" test_system="K-562 leukemia" endpoint_value="> 100 µM"
compound="CCCCC(C)C(OC(=O)CC(CC(=O)O)C(=O)O)C(CC(C)CC(O)CCCCC(O)CC(O)C(C)N)OC(=O)CC(CC(=O)O)C(=O)O (stereo not given)" test_system="K-562 leukemia" endpoint_value="> 100 µM"
compound=O=C(O)c1cn(C2CC2)c2cc(N3CCN(C(=O)Nc4nc(-c5ccccc5)cs4)CC3)c(F)cc2c1=O test_system="K-562 leukemia" endpoint_value="> 100 µM"
compound=O=C(CCC(=O)CC(O)(C(F)(F)F)C(F)(F)F)CC(O)(C(F)(F)F)C(F)(F)F test_system="K-562 leukemia" endpoint_value="> 100 µM"
compound="Cc1cn(C2C=CC(CO)O2)c(=O)[nH]c1=O (stereo not given)" test_system="K-562 leukemia" endpoint_value="> 1000 µM"
compound=CCOC(=O)c1c(Br)c(-c2ccc(OC)cc2)c(Br)n1C test_system="K-562 leukemia" endpoint_value="38.3 µM"
compound="CC1(C)C(=O)c2ccccc2OC1N1CCN(C2Oc3ccccc3C(=O)C2(C)C)CC1 (stereo not given)" test_system="K-562 leukemia" endpoint_value="> 100 µM"
compound="O=C1C2=C(c3ccccc31)C(c1ccccc1)N1C(=O)CSC1=N2 (stereo not given)" test_system="K-562 leukemia" endpoint_value="> 100 µM"
compound="COC(=O)/C(=N/Nc1cccc(Cl)c1)C(C(=O)C(=O)Nc1cccc(Cl)c1C)c1nc2ccccc2nc1C (stereo not given)" test_system="K-562 leukemia" endpoint_value="> 100 µM"
